Reference source for all entries: BigSolDB 2.1

conditions: in isopropanol, 333.15 K
Measure: solubility (mole fraction)
Just the number, please.

QUERY: Give the reported value of solubility (mole fraction) for this record: `N[C@H](Cc1c[nH]c2ccccc12)C(=O)O`
RESULT: 6.22e-05

---

settings: in DMF, 323.15 K
Measure: solubility (mole fraction)
// keep it numeric: no unit symbol after the value

QUERY: Give the reported solubility (mole fraction) for this compound. `N[C@H](Cc1c[nH]c2ccccc12)C(=O)O`
RESULT: 0.0104

---

settings: in ethanol, 323.15 K
Measure: solubility (mole fraction)

QUERY: Report solubility (mole fraction) for `N[C@H](Cc1c[nH]c2ccccc12)C(=O)O`
RESULT: 0.00041

---

conditions: in DMF, 288.15 K
Measure: solubility (mole fraction)
Write the value as a bare number.

QUERY: Determine its reported solubility (mole fraction): `N[C@H](Cc1c[nH]c2ccccc12)C(=O)O`
RESULT: 0.00749

---

conditions: in DMF, 298.15 K
Measure: solubility (mole fraction)

QUERY: State its solubility (mole fraction): `N[C@H](Cc1c[nH]c2ccccc12)C(=O)O`
RESULT: 0.00834

---

conditions: in ethanol, 318.15 K
Measure: solubility (mole fraction)
Lab note: write the figure by itself, no unit.

QUERY: Please report the measured solubility (mole fraction) for `N[C@H](Cc1c[nH]c2ccccc12)C(=O)O`
RESULT: 0.000348

---

details: in methanol, 333.15 K
Measure: solubility (mole fraction)
Enter the number alone.

QUERY: Report solubility (mole fraction) for `N[C@H](Cc1c[nH]c2ccccc12)C(=O)O`
RESULT: 0.000894

---

details: in ethanol, 283.15 K
Measure: solubility (mole fraction)
Respond with the number and no other words.

QUERY: For `N[C@H](Cc1c[nH]c2ccccc12)C(=O)O` , write its solubility (mole fraction).
RESULT: 9.34e-05

---

settings: in water, 293.15 K
Measure: solubility (mole fraction)
Answer with a bare number; do not write a unit.

QUERY: # return recorded solubility (mole fraction) for entry `N[C@H](Cc1c[nH]c2ccccc12)C(=O)O`
RESULT: 0.00175

---

conditions: in methanol, 303.15 K
Measure: solubility (mole fraction)
In your answer, state the number alone without any accompanying words.

QUERY: Recall and state the measured solubility (mole fraction) for `N[C@H](Cc1c[nH]c2ccccc12)C(=O)O` .
RESULT: 0.000358

---

conditions: in isopropanol, 303.15 K
Measure: solubility (mole fraction)
// print number alone

QUERY: Provide solubility (mole fraction) value for the following molecule: `N[C@H](Cc1c[nH]c2ccccc12)C(=O)O`
RESULT: 2.64e-05

---

conditions: in water, 308.15 K
Measure: solubility (mole fraction)
Write the value as a bare number.

QUERY: // Input: `N[C@H](Cc1c[nH]c2ccccc12)C(=O)O` . Output its solubility (mole fraction) only.
RESULT: 0.00227

---

conditions: in isopropanol, 313.15 K
Measure: solubility (mole fraction)
Please respond with just the number, no unit label.

QUERY: Kindly indicate its recorded solubility (mole fraction). Item: `N[C@H](Cc1c[nH]c2ccccc12)C(=O)O`
RESULT: 3.62e-05

---

settings: in ethanol, 288.15 K
Measure: solubility (mole fraction)
Keep the answer to the number alone.

QUERY: Fill in reported solubility (mole fraction) for this entry: `N[C@H](Cc1c[nH]c2ccccc12)C(=O)O`
RESULT: 0.000112

---

conditions: in isopropanol, 308.15 K
Measure: solubility (mole fraction)
Field format: numeric only.

QUERY: Retrieve solubility (mole fraction) measured for `N[C@H](Cc1c[nH]c2ccccc12)C(=O)O` and print it.
RESULT: 3.09e-05

---

settings: in DMF, 308.15 K
Measure: solubility (mole fraction)
Form field (numeric): enter value without unit.

QUERY: Recall and state the measured solubility (mole fraction) for `N[C@H](Cc1c[nH]c2ccccc12)C(=O)O` .
RESULT: 0.00912

---

details: in isopropanol, 288.15 K
Measure: solubility (mole fraction)
Lab note: record just the number, no unit beside it.

QUERY: Return solubility (mole fraction) (reported value) for this compound: `N[C@H](Cc1c[nH]c2ccccc12)C(=O)O`
RESULT: 1.57e-05

---

settings: in water, 288.15 K
Measure: solubility (mole fraction)

QUERY: Identify measured solubility (mole fraction) corresponding to `N[C@H](Cc1c[nH]c2ccccc12)C(=O)O`
RESULT: 0.00159

---

details: in ethanol, 293.15 K
Measure: solubility (mole fraction)
Field format: numeric only.

QUERY: Please give the documented solubility (mole fraction) of `N[C@H](Cc1c[nH]c2ccccc12)C(=O)O`
RESULT: 0.000135

---

conditions: in water, 313.15 K
Measure: solubility (mole fraction)
Answer using only a numeral; do not append any unit.

QUERY: Return the recorded solubility (mole fraction) value; entry: `N[C@H](Cc1c[nH]c2ccccc12)C(=O)O`
RESULT: 0.00245

---

settings: in methanol, 328.15 K
Measure: solubility (mole fraction)
Answer with a number only.

QUERY: Respond only with solubility (mole fraction) recorded for `N[C@H](Cc1c[nH]c2ccccc12)C(=O)O`
RESULT: 0.000779

---

conditions: in water, 333.15 K
Measure: solubility (mole fraction)
Kindly provide the number alone.

QUERY: Give solubility (mole fraction) for `N[C@H](Cc1c[nH]c2ccccc12)C(=O)O`
RESULT: 0.00332

---

details: in DMF, 283.15 K
Measure: solubility (mole fraction)
Keep the answer to the number alone.

QUERY: Return reported solubility (mole fraction). Input compound: `N[C@H](Cc1c[nH]c2ccccc12)C(=O)O`
RESULT: 0.00714

---

conditions: in isopropanol, 328.15 K
Measure: solubility (mole fraction)
Number only, please.

QUERY: Return solubility (mole fraction) (reported value) for this compound: `N[C@H](Cc1c[nH]c2ccccc12)C(=O)O`
RESULT: 5.44e-05

---

conditions: in DMF, 313.15 K
Measure: solubility (mole fraction)
Just the number.

QUERY: Return solubility (mole fraction) for the following compound: `N[C@H](Cc1c[nH]c2ccccc12)C(=O)O`
RESULT: 0.00954

---

details: in DMF, 293.15 K
Measure: solubility (mole fraction)
In your answer, state the number alone without any accompanying words.

QUERY: Recall and state the measured solubility (mole fraction) for `N[C@H](Cc1c[nH]c2ccccc12)C(=O)O` .
RESULT: 0.00793

---

settings: in ethanol, 298.15 K
Measure: solubility (mole fraction)
Respond using a number only.

QUERY: Return solubility (mole fraction) for the following molecule: `N[C@H](Cc1c[nH]c2ccccc12)C(=O)O`
RESULT: 0.000165

---

conditions: in DMF, 318.15 K
Measure: solubility (mole fraction)
Could you keep your reply to the number by itself?

QUERY: State its solubility (mole fraction) for this compound: `N[C@H](Cc1c[nH]c2ccccc12)C(=O)O`
RESULT: 0.01

---

conditions: in DMF, 328.15 K
Measure: solubility (mole fraction)
Format: numeric value only, no unit, no commentary.

QUERY: Tell me solubility (mole fraction) reported for `N[C@H](Cc1c[nH]c2ccccc12)C(=O)O`
RESULT: 0.0108

---

conditions: in water, 328.15 K
Measure: solubility (mole fraction)
No unit in the answer, please; the number alone is enough.

QUERY: Could you please provide reported solubility (mole fraction) for `N[C@H](Cc1c[nH]c2ccccc12)C(=O)O` ? Thanks!
RESULT: 0.00309

---

conditions: in ethanol, 303.15 K
Measure: solubility (mole fraction)
Respond using a number only.

QUERY: Give recorded solubility (mole fraction). `N[C@H](Cc1c[nH]c2ccccc12)C(=O)O`
RESULT: 0.000202

---

details: in methanol, 313.15 K
Measure: solubility (mole fraction)
// response body must contain only the number

QUERY: Given `N[C@H](Cc1c[nH]c2ccccc12)C(=O)O` , respond with its solubility (mole fraction).
RESULT: 0.000489

---

conditions: in water, 318.15 K
Measure: solubility (mole fraction)
Give the figure only, with no unit attached.

QUERY: Tell me solubility (mole fraction) reported for `N[C@H](Cc1c[nH]c2ccccc12)C(=O)O`
RESULT: 0.00267

---

details: in isopropanol, 318.15 K
Measure: solubility (mole fraction)

QUERY: Consider the compound `N[C@H](Cc1c[nH]c2ccccc12)C(=O)O` and give its recorded solubility (mole fraction).
RESULT: 4.16e-05

---

conditions: in isopropanol, 298.15 K
Measure: solubility (mole fraction)
Please respond with just the number, no unit label.

QUERY: Return the recorded solubility (mole fraction) value; entry: `N[C@H](Cc1c[nH]c2ccccc12)C(=O)O`
RESULT: 2.26e-05

---

settings: in ethanol, 328.15 K
Measure: solubility (mole fraction)
No unit in the answer, only the number.

QUERY: Let me know recorded solubility (mole fraction) for `N[C@H](Cc1c[nH]c2ccccc12)C(=O)O` , thanks.
RESULT: 0.000484
